Molecular target: T1, interleukin-23 receptor (IL-23R), Q5VWK5
T1 chain: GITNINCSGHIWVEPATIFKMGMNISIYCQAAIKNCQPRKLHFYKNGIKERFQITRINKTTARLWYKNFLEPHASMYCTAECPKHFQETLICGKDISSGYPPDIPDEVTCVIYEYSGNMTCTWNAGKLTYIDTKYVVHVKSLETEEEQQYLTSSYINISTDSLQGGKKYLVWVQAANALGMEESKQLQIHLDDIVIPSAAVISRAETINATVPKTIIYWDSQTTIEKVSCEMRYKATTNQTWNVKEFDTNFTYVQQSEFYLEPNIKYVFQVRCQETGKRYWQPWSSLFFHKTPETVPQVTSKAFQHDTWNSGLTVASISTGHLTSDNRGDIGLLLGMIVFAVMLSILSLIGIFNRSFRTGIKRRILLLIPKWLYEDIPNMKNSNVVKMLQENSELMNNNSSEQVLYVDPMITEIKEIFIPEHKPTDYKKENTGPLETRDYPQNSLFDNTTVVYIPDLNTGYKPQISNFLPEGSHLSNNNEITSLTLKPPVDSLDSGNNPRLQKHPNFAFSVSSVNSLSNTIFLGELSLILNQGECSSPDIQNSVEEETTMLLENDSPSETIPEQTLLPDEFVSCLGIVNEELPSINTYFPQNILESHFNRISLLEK
Experiment: cell-based or functional assay
Starred links: 1 amine or outer side, 2 acyl side, 3 side chain; linkers in the order of their positions; H or OH if unused. Positions of bridges follow the written chain, without caps; N, C: chain ends. Non-standard residues stand in square brackets, D forms with d. No end group written: not given here. X1 = 3‑(7-(3-acetamidophenyl)-1H-indol-3-yl)‑2‑aminopropanoic acid, CC(=O)Nc1cccc(-c2cccc3c(CC(N[*:1])C(=O)[*:2])c[nH]c23)c1; X3 = 4‑(2-(4-(2-amino-2-carboxyethyl)phenoxy)ethyl)‑4‑methylmorpholin‑4‑ium, C[N+]1(CCOc2ccc(CC(N[*:1])C(=O)[*:2])cc2)CCOCC1; X10 = 2‑amino‑3‑(4-(2-guanidinoethoxy)phenyl)propanoic acid, N=C(N)NCCOc1ccc(CC(N[*:1])C(=O)[*:2])cc1; X7 = 2‑amino‑3‑(5-methylpyridin-3-yl)propanoic acid, Cc1cncc(CC(N[*:1])C(=O)[*:2])c1; Trp(7-(3-AcNH-Ph)) = CC(=O)Nc1cccc(-c2cccc3c(C[C@H](N)C(=O)O)c[nH]c23)c1; N‑methyl‑N‑acetyllysine = N-methyl-N-acetyllysine; 2Nal(6-OH) = N[C@@H](Cc1ccc2cc(O)ccc2c1)C(=O)O; Trp(7-Me) = Cc1cccc2c(C[C@H](N)C(=O)O)c[nH]c12; AEF = NCCOc1ccc(C[C@H](N)C(=O)O)cc1; 3Pal = N[C@@H](Cc1cccnc1)C(=O)O; Pen = CC(C)(S)[C@H](N)C(=O)O; lipid = not defined here; Thp = NC1(C(=O)O)CCOCC1; Sar = CNCC(=O)O
Quantity Kind: PBMC pSTAT3 IC50

Query :: Kindly indicate its recorded PBMC pSTAT3 IC50. Item: R[Pen]ET[Trp(7-Me)]K(Ac)[Pen][AEF][2Nal(6-OH)][Thp]KN[3Pal][Sar] (not fully specified (bridges); ends and bridges not checked; also: K11: lipidated lysine) [SEQ ID NO: 420]
Result :: < 0.1 nM

Query :: Give PBMC pSTAT3 IC50 for [Pen]NT[X1]K(Ac)[Pen][X10][2‑amino‑3‑(6-hydroxynaphthalen-2-yl)propanoic acid][Thp]EN[X7][Sar] (ends and bridges not checked) [SEQ ID NO: 16]
Result :: < 10 pM

Query :: Tell me measured PBMC pSTAT3 IC50 for [Pen]NT[Trp(7-Me)]K(lipid)[Pen][2‑amino‑3‑(4-(2-aminoethoxy)phenyl)propanoic acid][2‑amino‑3‑(6-hydroxynaphthalen-2-yl)propanoic acid][Thp]K(Ac)N[3Pal][Sar] (disulfide 1-6 (inferred); ends not checked; also: K5 lipidated, lipid not given here) [SEQ ID NO: 178] please.
Result :: > 1 nM

---
Query :: Please give the documented PBMC pSTAT3 IC50 of R[Pen]NT[Trp(7-Me)]K(Ac)[Pen][2‑amino‑3‑(4-(2-aminoethoxy)phenyl)propanoic acid][2‑amino‑3‑(6-(3-(trifluoromethyl)-1H-pyrazol-4-yl)naphthalen-2-yl)propanoic acid][Thp]EN[Thp] (not fully specified (bridges); ends and bridges not checked) [SEQ ID NO: 434]
Result :: > 1 nM

Query :: Determine its reported PBMC pSTAT3 IC50: [Pen]NT[Trp(7-(3-AcNH-Ph))]K(Ac)[Pen][X3][2Nal(6-OH)][Thp][N‑methyl‑N‑acetyllysine]NH[Sar] (disulfide 1-6 (inferred); ends not checked) [SEQ ID NO: 62]
Result :: < 1 nM

Query :: Tell me measured PBMC pSTAT3 IC50 for R[Pen]NT[Trp(7-Me)]K[Pen][AEF][2Nal(6-OH)][Thp]EN[3Pal][Sar] (disulfide 2-7 (inferred); ends not checked; also: K6: lipidated lysine, lipid not given here) [SEQ ID NO: 120] please.
Result :: < 1 nM

Reference for the values: patent US20240279281A1
